All values here come from PubChem BioAssay (EPA / NIEHS).

measured on: Luciferin 4-monooxygenase (Photinus pyralis) (UniProt P08659)
Sequence (P08659 whole entry, looked up): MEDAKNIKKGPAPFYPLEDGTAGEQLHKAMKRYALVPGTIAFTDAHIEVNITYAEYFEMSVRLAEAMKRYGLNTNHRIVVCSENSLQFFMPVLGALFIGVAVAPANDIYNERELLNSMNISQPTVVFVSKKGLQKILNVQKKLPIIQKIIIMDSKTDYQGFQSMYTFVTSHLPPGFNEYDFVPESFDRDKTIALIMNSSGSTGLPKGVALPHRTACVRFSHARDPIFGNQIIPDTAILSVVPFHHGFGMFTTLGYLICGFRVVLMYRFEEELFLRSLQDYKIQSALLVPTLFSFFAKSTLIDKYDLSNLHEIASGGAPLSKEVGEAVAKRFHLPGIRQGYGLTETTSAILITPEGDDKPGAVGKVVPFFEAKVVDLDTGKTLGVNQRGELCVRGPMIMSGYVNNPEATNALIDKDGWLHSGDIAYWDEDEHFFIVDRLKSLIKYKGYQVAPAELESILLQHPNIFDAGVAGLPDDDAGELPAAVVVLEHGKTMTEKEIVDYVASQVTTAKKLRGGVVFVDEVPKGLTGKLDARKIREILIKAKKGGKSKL
assay: CCTE_Simmons_QuantiLum_inhib_2: CCTE's Firefly Luciferase Inhibition Assay, Simmons Lab (AID 2283767);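 on AC50: potency for inhibitors that lower luciferase luminescence relative to DMSO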
Records with an inconclusive call do not appear. Calls of active or inactive are those of the source. How the source made its calls: active means hit-call score of the fitted dose curve at least 0.9, where 1 is the maximum; inconclusive means response in the unintended direction; inactive means score below 0.9.
measured metric: AC50

CCN(Cc1cccc(S(=O)(=O)O)c1)c1ccc(C(=C2C=CC(=[N+](CC)Cc3cccc(S(=O)(=O)O)c3)C=C2)c2ccccc2S(=O)(=O)[O-])cc1
15.8 µM (active)
CCOC(=O)O[C@H](C)OC(=O)c1ccc2c(c1)cc(C(=O)NC1CCN(C(C)C)CC1)n2Cc1cc(-c2ccc(Cl)s2)on1
inactive
CC(C)(C)c1cc(/C=C2\SC(N)=NC2=O)cc(C(C)(C)C)c1O
inactive
